Biological target: cloned human 5-HT1A receptors (Homo sapiens, UniProt P08908)
Construct: expressed in transfected cells; host or cells: HeLa cells (HA7)
Sequence (P08908 1-422): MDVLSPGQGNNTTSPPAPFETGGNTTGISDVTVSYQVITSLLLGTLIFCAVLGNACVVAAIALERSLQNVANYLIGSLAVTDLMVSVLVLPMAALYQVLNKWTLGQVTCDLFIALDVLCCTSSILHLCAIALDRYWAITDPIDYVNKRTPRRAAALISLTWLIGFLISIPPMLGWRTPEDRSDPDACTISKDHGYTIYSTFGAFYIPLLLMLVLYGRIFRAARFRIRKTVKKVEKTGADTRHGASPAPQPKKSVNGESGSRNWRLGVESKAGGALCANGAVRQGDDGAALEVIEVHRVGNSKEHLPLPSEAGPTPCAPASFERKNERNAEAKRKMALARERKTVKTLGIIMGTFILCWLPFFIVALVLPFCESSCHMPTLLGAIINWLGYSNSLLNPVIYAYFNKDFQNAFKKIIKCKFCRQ
Assay: Inhibition of 3H-5-CT binding to human 5-HT1A receptors
Settings: at 100 nM; cloned human 5-HT1A receptors in HeLa cells (HA7)
Here the recorded inhibition at 0.1 µM is given for each entry.
Field: numeric (%). Do not append units.

Past entries and their recorded results:
compound	inhibition at 0.1 µM [%]
CC1(C)Cc2cc(Cl)cc(N3CCN(CCCSc4c(Cl)cccc4Cl)CC3)c2O1 [Compound 5az]	18
N#Cc1cccc(OCCCCN2CCN(c3cccc4c3OCCO4)CC2)c1 [Compound 7bh]	95
COc1ccccc1SCCCCN1CCN(c2cccc3c2OCCO3)CC1 [Compound 7bm]	95

Entry Clc1cccc(SCCCN2CCN(c3cccc4c3OCCO4)CC2)c1Cl [Compound 7al] ; inhibition at 0.1 µM = 98

The recorded inhibition at 0.1 µM for CC(C)c1ccccc1SCCCCN1CCN(c2cccc3c2OCCO3)CC1 [Compound 7bn] is 93

inhibition at 0.1 µM reported for this compound Fc1ccccc1SCCCCN1CCN(c2cccc3c2OCCO3)CC1 [Compound 7bf] : 101

// inhibition at 0.1 µM value for Clc1ccccc1SCCN1CCN(c2cccc3c2OCCO3)CC1 [Compound 7av] : 90

Quick note, inhibition at 0.1 µM for CCc1ccccc1SCCN1CCN(c2cccc3c2OCCO3)CC1 [Compound 7as] landed at 80

get_value(item= N#Cc1ccc(N2CCN(CCCOc3c(Cl)cccc3Cl)CC2)c2c1OCCO2 [Compound 5cl] , readout=inhibition at 0.1 µM) returns 83

Data point: Clc1cccc(SCCN2CCN(c3cccc4c3OCCO4)CC2)c1 [Compound 7au] ; inhibition at 0.1 µM = 84

The recorded inhibition at 0.1 µM for entry Cc1cccc(C)c1SCCCCN1CCN(c2cccc3c2OCCO3)CC1 [Compound 7ac] equals 96

Lab note: N#Cc1ccc(OCCCCN2CCN(c3cccc4c3OCCO4)CC2)c(Cl)c1 [Compound 7bb] gave inhibition at 0.1 µM of 101

Kindly note the recorded inhibition at 0.1 µM for Brc1cccc(SCCCN2CCN(c3cccc4c3OCCO4)CC2)c1 [Compound 7bl] , which is 95

Memo: FC(F)(F)c1ccccc1SCCN1CCN(c2cccc3c2OCCO3)CC1 [Compound 7af] , reported inhibition at 0.1 µM: 99

In plain terms, Fc1ccc(SCCCCN2CCN(c3cccc4c3OCCO4)CC2)c(Cl)c1 [Compound 7bi] has a documented inhibition at 0.1 µM of 96
